# SUBJECT_OF_TEST: AKT (Homo sapiens, UniProt P31749)
# Sequence (P31749 whole entry): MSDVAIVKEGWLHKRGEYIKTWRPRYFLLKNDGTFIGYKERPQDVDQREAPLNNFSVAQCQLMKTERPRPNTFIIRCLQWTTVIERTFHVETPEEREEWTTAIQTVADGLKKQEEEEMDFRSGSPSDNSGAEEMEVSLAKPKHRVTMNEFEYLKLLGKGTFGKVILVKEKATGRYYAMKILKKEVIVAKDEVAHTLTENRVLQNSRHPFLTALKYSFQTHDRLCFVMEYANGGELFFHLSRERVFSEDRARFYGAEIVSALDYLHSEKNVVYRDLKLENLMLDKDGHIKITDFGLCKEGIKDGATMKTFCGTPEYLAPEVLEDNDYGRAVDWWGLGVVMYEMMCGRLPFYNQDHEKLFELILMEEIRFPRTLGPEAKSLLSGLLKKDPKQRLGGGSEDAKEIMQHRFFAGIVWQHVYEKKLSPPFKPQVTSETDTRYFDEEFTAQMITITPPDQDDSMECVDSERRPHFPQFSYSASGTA
# ASSAY_REMARKS: RBC HotSpot kinase assay (33P-ATP, P81 filter-binding), AKT
# Format: biochemical
# CONDITION: Table 28, biochemical kinase assay; read-out: AKT IC50
PROPERTY_MEASURED: IC50 (nM)
One number for each entry, in nM.

Some molecules with recorded IC50:
{"QUERY_SMILES": "COC(=O)c1c[nH]c2nccc(-c3ccc(CN)c(Cl)c3)c12", "PROPERTY_MEASURED": "IC50", "OBS_VALUE": 823}
{"QUERY_SMILES": "CN[C@@H](C)C(=O)N1C[C@@H](C)[C@](O)(c2c(C)cc(-c3ccnc4[nH]cc(F)c34)cc2F)[C@@H](C)C1", "PROPERTY_MEASURED": "IC50", "OBS_VALUE": 1350}

Please turn your attention to the following entry.
IC50 reading for "CCc1cc(-c2ccnc3[nH]cc(F)c23)ccc1[C@@]1(O)[C@H](C)CNC[C@@H]1C" : 39.5
